# CONDITION_PARAMETERS: human;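 note: malignant tumour confirmed by histopathology, value gives the count of indexed literature references reporting it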
QUANTITY_KIND: Hepatotoxicity (malignant tumour)

COMPOUND	Hepatotoxicity (malignant tumour)
COc1ccc(C(=O)Nc2ccccc2CCC2CCCCN2C)cc1 (stereo not drawn) [ENCAINIDE]	0
CC(=O)O[C@@]12CO[C@@H]1C[C@H](O)[C@@]1(C)C(=O)[C@H](O)C3=C(C)[C@@H](OC(=O)[C@H](O)[C@@H](NC(=O)OC(C)(C)C)c4ccccc4)C[C@@](O)([C@@H](OC(=O)c4ccccc4)[C@H]21)C3(C)C.O.O.O	0

Please turn your attention to the following entry.
Query: What value of measured Hepatotoxicity (malignant tumour) is listed for `CCCCc1oc2ccccc2c1C(=O)c1cc(I)c(OCCN(CC)CC)c(I)c1` ?
Reply: 0
